The measurements presented in this section are drawn from paper PMC5540273.

# maps each entry to its %Inh
Test system: ICK
Conditions: concentration: 1 μM, replicates: in singlicate; n = 1;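 note: KINOMEscan kinase panel screen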
Unit % implied. Number only.

Prompt line: So what's the measured %Inh for this one? CN1C(=O)C(Nc2ccccc2)=C(c2ccccc2)C1=O [SB-300079]
Response line: 0

---
Prompt line: So what's the measured %Inh for this one? COc1ccc(CNC(=O)NC2CCN(c3ccnc(Nc4ccc(F)cc4)n3)C2)cc1 (stereo not shown) [GSK1379706]
Response line: 0

Prompt line: So what's the measured %Inh for this one? COc1ccc(-n2cnc3c(N)ncnc32)cc1 [SKF-97236]
Response line: 0

Prompt line: So what's the measured %Inh for this one? CN1C(=O)C(Nc2cc(Cl)c(O)c(Cl)c2)=C(c2ccc(Cl)cc2)C1=O [SB-404321]
Response line: 6

---

Tested on: EPHB4
Conditions: concentration: 1 μM, replicates: in singlicate; n = 1
API: label(entry) gives Satisfied if the entry's %Inh is strictly smaller than 5%; on equality or larger values it gives Not satisfied.

Past entries and their recorded results:
Prompt line: Find out if reported %Inh for COc1cc2nccc(Nc3cccc(Oc4ccccc4)c3)c2cc1OC.Cl is less than 5%
Response line: Satisfied

Prompt line: Find out if reported %Inh for Fc1cccc(CSc2nnc(-c3ccc4c(c3)CCO4)o2)c1 is less than 5%
Response line: Satisfied

Prompt line: Find out if reported %Inh for COc1ccc(-c2coc3ccc(-c4nnc(SCc5cccc(C#N)c5)o4)cc23)cc1 is less than 5%
Response line: Satisfied

// next entry
Prompt line: Find out if reported %Inh for CCS(=O)c1ccc(-c2coc3ccc(-c4nnc(C)o4)cc23)cc1 (stereo not drawn) is less than 5%
Response line: Not satisfied

---

System: ULK2
Conditions: concentration: 1 μM, replicates: in singlicate; n = 1
Measured Metric: %Inh (%)
Unit % implied. Number only.

Some compounds with known %Inh results, for comparison:
Prompt line: Find %Inh (ULK2) for the entry COc1ccc(-c2cc3c(C)nc(N)nc3n([C@H]3CC[C@H](O)CC3)c2=O)cn1
Response line: 0

Prompt line: Find %Inh (ULK2) for the entry O=C(NCc1cccs1)c1cc(C(=O)c2c(Cl)cccc2Cl)c[nH]1
Response line: 29

Prompt line: Find %Inh (ULK2) for the entry CN(C)c1cc(-c2ccc3c(N)n[nH]c3c2)nc(N)n1
Response line: 0

Kindly review the next compound as well.
Prompt line: Find %Inh (ULK2) for the entry COc1cc2nccc(Nc3cccc(Oc4ccccc4)c3)c2cc1OC.Cl
Response line: 15

---

Test system: ACVR1
Settings: concentration: 1 μM, replicates: in singlicate; n = 1
# maps each entry to its %Inh

Some compounds with known %Inh results, for comparison:
Prompt line: So what's the measured %Inh for this one? COc1ccc(-c2cc3c(C)nc(N)nc3n([C@H]3CC[C@H](O)CC3)c2=O)cn1
Response line: 0%

Prompt line: So what's the measured %Inh for this one? O=C(Nc1ccc2c(c1)OCO2)NC1CCN(c2ccnc(NCc3ccc(F)cc3)n2)CC1
Response line: 0%

Prompt line: So what's the measured %Inh for this one? Cc1cc(Nc2nc(-c3cccc(C)n3)nc3ccccc23)ccn1
Response line: 0%

Prompt line: So what's the measured %Inh for this one? Cc1c(Cn2c(C)nn3c(=O)cc(N4CCO[C@H](C)C4)nc23)cccc1C(F)(F)F
Response line: 2%

---
Prompt line: So what's the measured %Inh for this one? CCCC(=O)Nc1n[nH]c2ncc(-c3cccc4ccccc34)cc12
Response line: 26%

Prompt line: So what's the measured %Inh for this one? CN1C(=O)C(Nc2ccccc2)=C(c2ccccc2)C1=O
Response line: 0%

Prompt line: So what's the measured %Inh for this one? Nc1nc(-c2ccccc2F)c(-c2ccnc3ccccc23)s1
Response line: 6%

Prompt line: So what's the measured %Inh for this one? Cc1nnc(-c2ccc3ncn(-c4ccc(S(C)=O)cc4)c3c2)o1 (stereo not drawn)
Response line: 0%

Prompt line: So what's the measured %Inh for this one? CN1C(=O)C(Nc2cc(Cl)c(O)c(Cl)c2)=C(c2ccc(Cl)cc2)C1=O
Response line: 0%

---

Tested on: CTK
Construct: gene MATK
Settings: concentration: 1 μM, replicates: in singlicate; n = 1
# maps each entry to its %Inh
Unit % implied. Number only.

Some compounds with known %Inh results, for comparison:
Prompt line: So what's the measured %Inh for this one? COc1cc(OC)cc(-c2cc3cnc(N)nc3nc2NC(=O)NC(C)(C)C)c1
Response line: 1

Prompt line: So what's the measured %Inh for this one? COc1ccc(-c2cc3c(C)nc(N)nc3n([C@H]3CC[C@H](OCCO)CC3)c2=O)cn1
Response line: 2

Prompt line: So what's the measured %Inh for this one? COc1cccc(C2=C(Nc3cccc(C(=O)O)c3)C(=O)NC2=O)c1 [SB-390770]
Response line: 0

Kindly review the next compound as well.
Prompt line: So what's the measured %Inh for this one? COC(=O)c1c(-c2ccccc2)c2cc(Br)ccc2c(=O)n1Cc1ccc(NC(=O)CCC(=O)O)cc1
Response line: 6

---

# maps each entry to its %Inh
Test system: ERK5
Construct: gene MAPK7
Details: concentration: 1 μM, replicates: in singlicate; n = 1
I'd appreciate it if you included the unit after the number.

Prompt line: So what's the measured %Inh for this one? Nc1ncnc2c1ncn2-c1ccc(Cl)cc1
Response line: 0%

Prompt line: So what's the measured %Inh for this one? O=c1cc(N2CCOCC2)nc2n(Cc3ccc(F)c(Cl)c3)ccn12
Response line: 2%

Prompt line: So what's the measured %Inh for this one? COc1ccc(-c2cc3c(C)nc(N)nc3n([C@H]3CC[C@H](O)CC3)c2=O)cn1
Response line: 0%

---
Prompt line: So what's the measured %Inh for this one? CCC(=O)c1c(-c2ccccc2)c2cc(Cl)ccc2c(=O)n1Cc1cc(S(C)(=O)=O)n(CCC(C)(C)O)n1
Response line: 15%

Prompt line: So what's the measured %Inh for this one? Cc1cc(Nc2nc(-c3cccc(C)n3)nc3ccccc23)ccn1
Response line: 3%

Prompt line: So what's the measured %Inh for this one? Nc1nc(N)c2nc(-c3ccccc3)[nH]c2n1
Response line: 0%

Prompt line: So what's the measured %Inh for this one? Cc1ccc(-c2ccc3c(ccc4sc5c(c43)NC[C@@H](C)N=C5N(C)C)n2)cn1
Response line: 2%

Prompt line: So what's the measured %Inh for this one? CC(C)(C)c1ccc(C(=O)Nc2cn3cc(-c4ccccc4)ccc3n2)cc1
Response line: 0%

---

Tested on: CASK
Details: concentration: 1 μM, replicates: in singlicate; n = 1
# maps each entry to its %Inh

Some compounds with known %Inh results, for comparison:
Prompt line: Find %Inh (CASK) for the entry Nc1ncnc2c1ncn2-c1ccc(Cl)cc1
Response line: 0%

Prompt line: Find %Inh (CASK) for the entry CCC(=O)c1c(-c2ccccc2)c2cc(Cl)ccc2c(=O)n1Cc1ccc(C(=O)O)cc1
Response line: 0%

---
Prompt line: Find %Inh (CASK) for the entry CCS(=O)c1ccc(-c2coc3ccc(-c4nnc(C)o4)cc23)cc1 (stereo not drawn)
Response line: 0%

Prompt line: Find %Inh (CASK) for the entry C[C@@H]1CC[C@H](C(=O)NC2CCCCC2)CN1c1cc(-c2ccc3c(N)n[nH]c3c2)nc(N)n1
Response line: 18%

Prompt line: Find %Inh (CASK) for the entry Cn1c(=O)c(F)c(Nc2ccc(I)cc2F)c2c(=O)n(OC[C@H](O)CO)cnc21
Response line: 0%

Prompt line: Find %Inh (CASK) for the entry Nc1nc(-c2ccccc2F)c(-c2ccnc3ccccc23)s1
Response line: 0%

Prompt line: Find %Inh (CASK) for the entry Cc1nc(N(C)[C@H]2CN(C(=O)CC#N)CC[C@H]2C)c2cc[nH]c2n1
Response line: 15%

---

System: DAPK3
Details: concentration: 1 μM, replicates: in singlicate; n = 1
Record yes (1) whenever %Inh is at 9% or higher; record no (0) when lower.

Past entries and their recorded results:
Prompt line: Threshold query (%Inh >= 9%) on COc1cccc(-n2cnc3c(N)ncnc32)c1
Response line: no (0)

Prompt line: Threshold query (%Inh >= 9%) on CN(C)c1cc(-c2ccc3c(N)n[nH]c3c2)nc(N)n1
Response line: no (0)

Prompt line: Threshold query (%Inh >= 9%) on Nc1ncnc2c1ncn2-c1cccc2ccccc12
Response line: no (0)

---
Prompt line: Threshold query (%Inh >= 9%) on CCS(=O)(=O)c1ccc(OC)c(Nc2ncc(-c3ccc(F)cc3)o2)c1.Cl
Response line: yes (1)

Prompt line: Threshold query (%Inh >= 9%) on COC(=O)c1c(-c2ccccc2)c2cc(C)ccc2c(=O)n1Cc1ccccc1
Response line: no (0)

Prompt line: Threshold query (%Inh >= 9%) on Nc1n[nH]c2ncc(-c3ccccc3)cc12
Response line: yes (1)

Prompt line: Threshold query (%Inh >= 9%) on Nc1n[nH]c2nnc(-c3ccccc3)c(-c3ccccc3)c12
Response line: yes (1)

Prompt line: Threshold query (%Inh >= 9%) on Cn1c(=O)c(F)c(Nc2ccc(I)cc2F)c2c(=O)n(OC[C@H](O)CO)cnc21
Response line: yes (1)

Prompt line: Threshold query (%Inh >= 9%) on Nc1nc(-c2ccccc2F)c(-c2ccnc3ccccc23)s1
Response line: yes (1)
